- Measured On: SST2 (Homo sapiens)
- Construct: host or cells: PathHunter CHO-K1 SST2 cells
- Sequence (P30874 whole entry): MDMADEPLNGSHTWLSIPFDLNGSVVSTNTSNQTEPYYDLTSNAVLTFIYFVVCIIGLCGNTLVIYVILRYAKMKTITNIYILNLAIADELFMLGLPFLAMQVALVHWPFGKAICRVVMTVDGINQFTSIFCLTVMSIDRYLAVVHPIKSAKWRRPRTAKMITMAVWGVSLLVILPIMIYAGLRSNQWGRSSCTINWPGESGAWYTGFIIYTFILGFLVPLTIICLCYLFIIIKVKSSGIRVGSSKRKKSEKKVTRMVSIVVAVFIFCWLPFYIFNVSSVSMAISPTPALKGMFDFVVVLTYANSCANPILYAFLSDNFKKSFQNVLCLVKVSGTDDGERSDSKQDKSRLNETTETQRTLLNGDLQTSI
- Procedure Summary: PathHunter CHO-K1 SST2 Internalization Assay
- Format: cell-based
- Measurement Parameters: PathHunter CHO-K1 SST2 cells; 90 min at 37 C; luminescence; read-out: Internalization EC50
Readout Name: pEC50
Lab note — pEC50 values are minus log10 of concentrations in M.

{"Compound": "CC[C@H](C)[C@@H]([C@@H](CC(=O)N1CCC[C@H]1[C@H](OC)[C@@H](C)C(=O)N[C@H](C)[C@@H](O)c1ccccc1)OC)N(C)C(=O)[C@@H](NC(=O)[C@H](C(C)C)N(C)C(=O)OCc1ccc(NC(=O)[C@H](CCCNC(N)=O)NC(=O)[C@@H](NC(=O)c2cc(NCCOCCC(=O)NCCNc3ncc(-c4cc(C)cc(F)c4)c(N4CCC(N)CC4)c3-c3nc4ccc(Cl)cc4[nH]3)cc(C(=O)NCCC(=O)O)c2)C(C)C)cc1)C(C)C [Compound 145]", "Measured On": "SST2 (Homo sapiens)", "pEC50": 7.77}

// switching to the query compound
Lab book: pEC50 of CC[C@H](C)[C@@H]([C@@H](CC(=O)N1CCC[C@H]1[C@H](OC)[C@@H](C)C(=O)N[C@H](C)[C@@H](O)c1ccccc1)OC)N(C)C(=O)[C@@H](NC(=O)[C@H](C(C)C)N(C)C(=O)OCc1ccc(NC(=O)[C@H](CCCNC(N)=O)NC(=O)[C@@H](NC(=O)c2cc(NCCOCCC(=O)NCCNc3ncc(-c4cc(C)cc(F)c4)c(N4CCC(N)CC4)c3-c3nc4cc(F)cc(OC)c4[nH]3)cc(C(=O)NCC(=O)O)c2)C(C)C)cc1)C(C)C [Compound 166] noted as 8.35
